assay.overview: Effect on Wnt signaling pathway in human SW480 cells harbouring TCF/LEF luciferase reporter gene and SP5-Luc reporter gene incubated for 36 to 48 hrs by luminescence assay
Assay type: cell-based
pEC50: −log10 of the molar value.

structure.notation	value.relation.sign	pEC50
CN1CCN(c2cncc3[nH]c(-c4n[nH]c5ccc(-c6cncc(NC(=O)CC7CCNCC7)c6)cc45)cc23)CC1	<	5.00
c1cncc(-c2cc3c(-c4cc5cccnc5[nH]4)n[nH]c3cn2)c1	<	5.00
Cn1cc(-c2cc3c(C(=O)Nc4ccc(CN5CCCC5)cc4)n[nH]c3cc2F)cn1	=	6.62
O=C(Nc1cncc(-c2cc3c(-c4nc5c(-c6cccs6)nccc5[nH]4)n[nH]c3cn2)c1)C1CC1	=	7.65
O=C(Nc1cc2cc(-c3cncs3)ccc2cn1)C1(F)CCCCC1	<	5.00
CN(C)c1cncc(-c2ccc3[nH]nc(-c4nc5c(-c6cccc(F)c6)ccnc5[nH]4)c3n2)c1	=	6.18
Nc1cncc(-c2cc3c(-c4cc5c(-c6ccncc6)cncc5[nH]4)n[nH]c3cn2)c1	<	5.00
CN1CCN(c2cc(C(=O)Nc3ncc4ccc(-c5cnn(C)c5)cc4n3)ccn2)CC1	=	6.33
CN1CCN(Cc2ccc(NC(=O)c3n[nH]c4ccc(-c5cccnc5)cc34)cn2)CC1	=	7.43
CC(C)Nc1cncc(-c2ccc3[nH]nc(-c4nc5c(-c6ccoc6)ccnc5[nH]4)c3n2)c1	=	6.53
CCC(=O)Nc1cncc(-c2ccc3[nH]nc(-c4cc5c(-c6cc(F)cc(CNS(C)(=O)=O)c6)cncc5[nH]4)c3c2)c1	=	6.61
O=C(Nc1ccc(N2CCC(F)(F)C2)nc1)c1n[nH]cc1C#Cc1cccnc1	<	5.00
O=C(Nc1cccnc1)Nc1c[nH]nc1C(=O)Nc1ccc(C(F)(F)F)nc1	=	6.17
COc1cncc(-c2ccc3[nH]nc(-c4nc5c(-c6cccc(F)c6)nccc5[nH]4)c3n2)c1	=	6.92
O=C(Nc1cncc(-c2cc3c(-c4cc5cnccc5[nH]4)n[nH]c3cn2)c1)c1ccccc1	=	6.24
CC(C)Nc1cncc(-c2ccc3[nH]nc(-c4cc5c(-c6cccnc6)ccnc5[nH]4)c3n2)c1	=	6.59
c1cncc(-c2ccc3[nH]nc(-c4nc5c(-c6cccnc6)nccc5[nH]4)c3n2)c1	<	5.00
CN(C)Cc1cncc(-c2cc3c(-c4cc5c(-c6ccncc6)cncc5[nH]4)n[nH]c3cn2)c1	<	5.00
